B1: HDV Ribozyme (parent)
chain: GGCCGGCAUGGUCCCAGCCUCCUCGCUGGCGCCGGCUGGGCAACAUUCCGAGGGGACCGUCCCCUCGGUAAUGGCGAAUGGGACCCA

variants of: B1; test: self-cleavage, relative activity (ratio to wild type); higher = more cleavage; co-transcriptional
Classify by self-cleavage. Ranges: lower level = under 0.2, middle level = from 0.2 up to 0.5, upper level = 0.5 and over

input_sequence=GGCCGGCAUGGUCCAAGACUCCUCGCUGGCGCCGGCUGGGCAACAUUCCGAGGGGACCGUCCCCUCGGUAAUGGCGAAUGGGACCCA label="lower level"
input_sequence=GGCCGGCAUGGUCCCAGCCUCCUCGCUGGCGCCGGCUGGGCAACAUUCCGAGGGGAUCGUCCCCUCGGUAAUAGCGAAUGGGACCCA label="upper level"
input_sequence=GGCCGGCAUGGUCCCAGCCUCCUAGCUGGCGCCGGCUGGGCUACAUUCCGAGGGGACCGUCCCCUCGGUAAUGGCGAAUGGGACCCA label="lower level"
input_sequence=GGCCGGCAUGGUCCCAGCCUCAUCGCUGGCGCCGGCUGGGCAACAUUCCGAGGGGACCGUCCCCUCGCUAAUGGCGAAUGGGACCCA label="middle level"
input_sequence=CGCCGGCAUGGUCCCAGCCUCCUCGCUGGCGCCGGCUGGGCAACAUUCCGAGGGGACCGUCCCCUCGAUAAUGGCGAAUGGGACCCA label="lower level"
input_sequence=GGCCGGCAUGGUCCCAGCAUCCUCGCUGGCGCCGGCUGGGCAACAUUCCGAGGGGACCGUCCCCUCGGAAAUGGCGAAUGGGACCCA label="lower level"
input_sequence=GGCCGGCAGGGUCCCAGCCUCCUCGCUGGCGCCGGCUGGGCAACAGUCCGAGGGGACCGUCCCCUCGGUAAUGGCGAAUGGGACCCA label="upper level"
input_sequence=GGCCGGCAUGGACCCAGCCUCCUCGGUGGCGCCGGCUGGGCAACAUUCCGAGGGGACCGUCCCCUCGGUAAUGGCGAAUGGGACCCA label="upper level"
input_sequence=GGCCGGCAUGGUCCCAGCCUCCUCGCUGGCGCCGGCUGGGCAACAUUCAGAGGGGACCGUCCCCUCGGUAAUGGCGGAUGGGACCCA label="middle level"
input_sequence=GACCGGCAUGGUCCCAGCCUCCUCGCUGGCGCCGACUGGGCAACAUUCCGAGGGGACCGUCCCCUCGGUAAUGGCGAAUGGGACCCA label="lower level"
input_sequence=GGCCGGCAUGGUCCCAGCCUCCUCGCUGGCGCCGGCUGGGAAACAUUCCGAGGGGACCGUCCCCUCGGUAAUGACGAAUGGGACCCA label="upper level"
input_sequence=GGCCGGCAUGGUCCCAGCCUCCUCGCUGGCGCCGGCUGGGCAACAUUCCGAGCGGACCGUCACCUCGGUAAUGGCGAAUGGGACCCA label="upper level"
input_sequence=GGCCGGCAAGGUCCCAGCCUCCUCGCUGGCGUCGGCUGGGCAACAUUCCGAGGGGACCGUCCCCUCGGUAAUGGCGAAUGGGACCCA label="upper level"
input_sequence=GGCCGGCAUGGUCCCAGCCUCCUCGCUGCCGCCGGCUGGGCAACAUUCCGAGGGGAGCGUCCCCUCGGUAAUGGCGAAUGGGACCCA label="lower level"
input_sequence=GGCCGGCAUGGUCCCAGCCUCCUCGCUGUCGCCGGCUGGGCAACAUUCCGAGGGGACCGUCCCCUCAGUAAUGGCGAAUGGGACCCA label="lower level"
input_sequence=GGCCGGCAUGGUCCCAGCCUCCUCGCUGGCGCCGGCUGGACAAUAUUCCGAGGGGACCGUCCCCUCGGUAAUGGCGAAUGGGACCCA label="upper level"
input_sequence=GGCCUGCAUGGUCCCAGCCUCGUCGCUGGCGCCGGCUGGGCAACAUUCCGAGGGGACCGUCCCCUCGGUAAUGGCGAAUGGGACCCA label="lower level"
input_sequence=GGCCGGCAUGGUUCCAGCCUCCUCGCUGGCGCCGGCUGGGCAACAUUCCGAGGGGACCGUCCGCUCGGUAAUGGCGAAUGGGACCCA label="middle level"
input_sequence=GGCCGGCAUGGUUCCAGCCUCCUCGCUGGCGCCGGCUGAGCAACAUUCCGAGGGGACCGUCCCCUCGGUAAUGGCGAAUGGGACCCA label="middle level"
input_sequence=GGCCGGCAUGGUCCCAGCCUCCUCGCUGGCGCCGUCUGGGCAACAUUCCGAGGGGACCGUCCCCUCGGUAAUGGCGAAUGGGACCCA label="middle level"
input_sequence=GGCCGGCAUGGCCCCAGCCUCCUCGCUGGCGCCGGCUGGGCAACAUUCCGAGGGGACCGUCCCCUCGUUAAUGGCGAAUGGGACCCA label="middle level"

The reported numbers originate from the RNAGym collection of RNA variant scans (doi:10.7554/elife.80360).
